The measured values listed here are drawn from ChEMBL document CHEMBL1143782.

# ASSAY_DETAILS: Volume of distribution in Sprague-Dawley rat
# Type: ADME, organism-based
# RUN_CONDITIONS: in vivo, read-out: Vdss

{"columns": ["MOLECULE", "Vd"],
 "data": [
  ["CC(=O)Nc1nc(C(CCN2CCC(c3ccccc3)CC2)C(=O)NCc2cc(C(F)(F)F)cc(C(F)(F)F)c2)cs1 (stereo unspecified)", "5.3 L/kg"]
]}

* * *

# ASSAY_DETAILS: Tmax in Sprague-Dawley rat
# Type: ADME, organism-based
# RUN_CONDITIONS: in vivo
PROPERTY_NAME: Tmax

{"columns": ["COMPOUND", "VALUE_MEASURED"],
 "data": [
  ["CC(=O)Nc1nc(C(CCN2CCC(c3ccccc3)CC2)C(=O)NCc2cc(C(F)(F)F)cc(C(F)(F)F)c2)cs1 (stereo unspecified)", "2.2 h"]
]}

* * *

# ASSAY_DETAILS: Clearance in Beagle dog
# Type: ADME, organism-based, Canis lupus familiaris
# RUN_CONDITIONS: in vivo
PROPERTY_NAME: clearance (mL/min/kg)

{"columns": ["COMPOUND", "PROPERTY_NAME", "VALUE_MEASURED"],
 "data": [
  ["CC(=O)Nc1nc(C(CCN2CCC(c3ccccc3)CC2)C(=O)NCc2cc(C(F)(F)F)cc(C(F)(F)F)c2)cs1 (stereo unspecified)", "clearance", 21.6]
]}

* * *

# TEST_SYSTEM: UniProt P41597
# ASSAY_DETAILS: Displacement of [125I]MCP1 from human CCR2 expressed in monocytes
PROPERTY_NAME: IC50 (nM)

{"columns": ["COMPOUND", "VALUE_MEASURED"],
 "data": [
  ["Nc1nc(C(CCN2CCC(n3cnc4ccccc43)CC2)C(=O)NCc2cc(C(F)(F)F)cc(C(F)(F)F)c2)cs1 (configuration not stated)", 28.6],
  ["Cc1ccccc1N1CCN(CCC(C(=O)NCc2cc(C(F)(F)F)cc(C(F)(F)F)c2)c2csc(N)n2)CC1 (configuration not stated)", 183],
  ["C[C@H]1CN(CCC(C(=O)NCc2cc(C(F)(F)F)cc(C(F)(F)F)c2)c2csc(NC(=O)C3Cc4ccccc43)n2)CC[C@]12C=Cc1ccccc12 (some centres not stated)", 36],
  ["O=C(Nc1nc(C(CCN2CCC(c3ccccc3)CC2)C(=O)NCc2cc(C(F)(F)F)cc(C(F)(F)F)c2)cs1)c1ccccc1 (configuration not stated)", 16],
  ["C[C@H]1CN(CCC(C(=O)NCc2cc(C(F)(F)F)cc(C(F)(F)F)c2)c2csc(NC(=O)c3ccccc3)n2)CC[C@]12C=Cc1ccccc12 (some centres not stated)", 17],
  ["CC(=O)Nc1nc([C@@H](CCN2CCC(c3ccccc3)CC2)C(=O)NCc2cc(C(F)(F)F)cc(C(F)(F)F)c2)cs1", 42],
  ["CNC(=O)Nc1nc([C@H](CCN2CCC3(C=Cc4ccccc43)CC2)C(=O)NCc2cc(C(F)(F)F)cc(C(F)(F)F)c2)cs1", 0.8]
]}

* * *

# ASSAY_DETAILS: Half life in Beagle dog
# Assay type: ADME, organism-based, Canis lupus familiaris
# RUN_CONDITIONS: in vivo

{"columns": ["COMPOUND", "half-life (h)"],
 "data": [
  ["CC(=O)Nc1nc(C(CCN2CCC(c3ccccc3)CC2)C(=O)NCc2cc(C(F)(F)F)cc(C(F)(F)F)c2)cs1 (stereo unspecified)", 2.28]
]}

* * *

# TEST_SYSTEM: C-C chemokine receptor type 2 (Homo sapiens)
# Sequence (P41597 whole entry): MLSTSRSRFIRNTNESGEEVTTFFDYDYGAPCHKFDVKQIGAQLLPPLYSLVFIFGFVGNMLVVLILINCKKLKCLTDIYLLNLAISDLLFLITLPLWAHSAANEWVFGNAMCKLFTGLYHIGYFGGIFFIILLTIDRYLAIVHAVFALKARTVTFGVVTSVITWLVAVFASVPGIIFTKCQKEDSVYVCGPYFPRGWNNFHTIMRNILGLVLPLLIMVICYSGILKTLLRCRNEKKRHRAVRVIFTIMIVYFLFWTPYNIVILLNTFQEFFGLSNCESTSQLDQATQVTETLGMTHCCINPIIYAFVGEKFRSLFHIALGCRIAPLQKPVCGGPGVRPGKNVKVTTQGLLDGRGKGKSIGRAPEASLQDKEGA
# ASSAY_DETAILS: Displacement of [125I]MCP1 from human CCR2 expressed in monocytes
PROPERTY_NAME: IC50 (nM)

{"columns": ["COMPOUND", "UNITS_LABEL", "VALUE_MEASURED"],
 "data": [
  ["CC(C)(C)C(=O)Nc1nc(C(CCN2CCC(c3ccccc3)CC2)C(=O)NCc2cc(C(F)(F)F)cc(C(F)(F)F)c2)cs1 (centres undefined)", "nM", 18],
  ["COC(=O)Nc1nc(C(CCN2CCC(c3ccccc3)CC2)C(=O)NCc2cc(C(F)(F)F)cc(C(F)(F)F)c2)cs1 (centres undefined)", "nM", 2.6],
  ["CS(=O)(=O)Nc1nc(C(CCN2CCC(c3ccccc3)CC2)C(=O)NCc2cc(C(F)(F)F)cc(C(F)(F)F)c2)cs1 (centres undefined)", "nM", 36],
  ["CC(=O)Nc1nc([C@@H](CCN2CCC3(C=Cc4ccccc43)CC2)C(=O)NCc2cc(C(F)(F)F)cc(C(F)(F)F)c2)cs1", "nM", 6.5],
  ["CC(=O)Nc1nc(C(CCN2CCC3(C=Cc4ccccc43)[C@@H](C)C2)C(=O)NCc2cc(C(F)(F)F)cc(C(F)(F)F)c2)cs1 (some centres undefined)", "nM", 3],
  ["CC(=O)Nc1nc(C(CCN2CCC3(C=Cc4ccccc43)CC2)C(=O)NCc2cc(C(F)(F)F)cc(C(F)(F)F)c2)cs1 (centres undefined)", "nM", 1.7],
  ["CCC(=O)Nc1nc(C(CCN2CCC(c3ccccc3)CC2)C(=O)NCc2cc(C(F)(F)F)cc(C(F)(F)F)c2)cs1 (centres undefined)", "nM", 3.5],
  ["Nc1nc([C@H](CCN2CCC(c3ccccc3)CC2)C(=O)NCc2cc(C(F)(F)F)cc(C(F)(F)F)c2)cs1", "nM", 13.3],
  ["CC(=O)Nc1nc([C@H](CCN2CCC3(C=Cc4ccccc43)CC2)C(=O)NCc2cc(C(F)(F)F)cc(C(F)(F)F)c2)cs1", "nM", 1.4]
]}
